# Test System: anti-CD28 scFv (VH - linker 1 - VL) (biotinylated (site not stated))
# Sequence (scFv, as listed by the source): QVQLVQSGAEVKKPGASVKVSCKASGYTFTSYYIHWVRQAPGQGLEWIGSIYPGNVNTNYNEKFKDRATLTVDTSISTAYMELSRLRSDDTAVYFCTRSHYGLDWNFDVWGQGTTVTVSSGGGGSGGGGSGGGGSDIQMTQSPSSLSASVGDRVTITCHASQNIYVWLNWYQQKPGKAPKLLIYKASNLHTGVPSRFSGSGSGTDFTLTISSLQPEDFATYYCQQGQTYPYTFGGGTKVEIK
# Protocol Text: phage ELISA as above, wells pre-incubated with soluble CD28 (competitor);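 note: ELISA of crude clonal phage supernatants added to wells pre-treated with soluble CD28 in blocking buffer, bound phage read out with HRP-conjugated anti-M13 antibody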
Where no end group is shown, it is not given here.
Metric Name: CD28 scFv signal in presence of CD28
Please give only the number in your answer, with no unit.

See these solved cases before continuing.
Entry MDWCPRHLWDQCFA (peptide, not shown: large carriers, Clonal phage of the Peptide-9 library) [Phage-161] : reported CD28 scFv signal in presence of CD28 = ?
0.144

Next entry: MDWCPRHLWNVCFS (peptide, not shown: large carriers, Clonal phage of the Peptide-9 library) [Phage-150]
0.176

Proceed to MDWCPKYLWDKCFH (peptide, not shown: large carriers, Clonal phage of the Peptide-9 library) [Phage-152]
0.109

Follow-up entry: MDWCPRDLWNVCFA (peptide, not shown: large carriers, Clonal phage of the Peptide-9 library) [Phage-154]
0.145

Next up: MHWCPRALWHECFN (peptide, not shown: large carriers, Clonal phage of the Peptide-9 library) [Phage-160]
0.144

Continuing:
// lookup CD28 scFv signal in presence of CD28 for MHWCPEYLWNECFA (peptide, not shown: large carriers, cysteine pairing not given here; also: displayed as fusion to phage pIII, linker and pIII sequence not given here, Clonal phage of the Peptide-9 library) [Phage-148]
0.092

Try MDWCPRDLWNVCFN (peptide, not shown: large carriers, cysteine pairing not given here; also: displayed as fusion to phage pIII, linker and pIII sequence not given here, Clonal phage of the Peptide-9 library) [Phage-169] next.
0.108

Ok, now MDWCPRYLWTECFF (peptide, not shown: large carriers, Clonal phage of the Peptide-9 library) [Phage-158]
0.244

Further, for MDWCPRDLWAVCFA (peptide, not shown: large carriers, Clonal phage of the Peptide-9 library) [Phage-149] ?
0.089

Param item: MDWCPKHLWIECFA (peptide, not shown: large carriers, cysteine pairing not given here; also: fused to phage pIII protein, pIII and linker sequence not given here, Clonal phage of the Peptide-9 library) [Phage-145]
0.132

What would you report for MHWCPRDLWVVCFN (peptide, not shown: large carriers, cysteine pairing not given here; also: fused to phage pIII protein, pIII and linker sequence not given here, Clonal phage of the Peptide-9 library) [Phage-147] ?
0.112

Source listed as patent US20260242478A1.
